Assay: Cytotoxicity against human Hep2 cells
Assay type: cell-based
Settings: HEp-2 cells
Property Measured: CC50

Solved cases (5 shown):
O=C(NC1CC1)c1cc2c(s1)-c1ccccc1N(C(=O)c1ccc(NC(=O)c3cccnc3N3CC4(CCOCC4)C3)cc1)CC2
6.41 µM
Cc1ccc(C(=O)Nc2ccc(C(=O)N3CCc4cc(-c5nc6ccccc6[nH]5)sc4-c4ccccc43)cc2)c(N2CC3(CCOCC3)C2)n1
> 14.6 µM
Cc1cccc2[nH]c(-c3cc4c(s3)-c3ccccc3N(C(=O)c3ccc(NC(=O)c5cccnc5N5CC6(CCOCC6)C5)cc3)CC4)nc12
> 14.6 µM
O=C(Nc1ccc(C(=O)N2CCc3cc(-c4nc5cnccc5[nH]4)sc3-c3ccccc32)cc1)c1cccnc1N1CC2(CCOCC2)C1
> 14.9 µM
Cc1cnc(N2CC3(CCOCC3)C2)c(C(=O)Nc2ccc(C(=O)N3CCc4cc(-c5nc(C)c(C)[nH]5)sc4-c4ccccc43)cc2)c1
> 15.1 µM

*Q* Please give the measured CC50 for this compound: "O=C(Nc1ccc(C(=O)N2CCc3cc(-c4nc5ccccc5[nH]4)sc3-c3ccccc32)cc1)c1cccnc1N1CC2(CCOCC2)C1"
*A* > 14.9 µM

*Q* Please give the measured CC50 for this compound: "O=C(Nc1ccc(C(=O)N2CCc3cc(-c4nc5ccccc5o4)sc3-c3ccccc32)cc1)c1cccnc1N1CC2(CCOCC2)C1"
*A* > 14.9 µM

*Q* Please give the measured CC50 for this compound: "Cc1cnc(N2CC3(CCOCC3)C2)c(C(=O)Nc2ccc(C(=O)N3CCc4cc(-c5ncc(C)[nH]5)sc4-c4ccccc43)cc2)c1"
*A* > 15.5 µM

---

Biological target: Phosphoprotein (Human respiratory syncytial virus A (strain A2))
Sequence (P03421 whole entry): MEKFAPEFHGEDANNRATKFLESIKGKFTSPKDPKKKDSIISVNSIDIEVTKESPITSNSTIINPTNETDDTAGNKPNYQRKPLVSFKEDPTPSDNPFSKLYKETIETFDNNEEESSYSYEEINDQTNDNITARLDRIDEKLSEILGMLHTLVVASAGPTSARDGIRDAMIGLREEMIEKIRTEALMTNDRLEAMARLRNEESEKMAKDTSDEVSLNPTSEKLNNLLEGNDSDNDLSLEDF
Assay: Inhibition of Respiratory syncytial virus A2 protein P by luciferase reporter-based RSV minigenome assay
Property Measured: IC50 (nM)
The response must be a number in nM with no trailing unit.

*Q* Phosphoprotein (Human respiratory syncytial virus A (strain A2)) / IC50 / "Cc1cnc(N2CC3(CCOCC3)C2)c(C(=O)Nc2ccc(C(=O)N3CCc4cc(-c5nc6cccc(F)c6[nH]5)sc4-c4ccccc43)cc2)c1" : value?
*A* 2

---

Known CC50 of a selection of compounds
Experiment: Cytotoxicity against human Hep2 cells
Format: cell-based
Conditions: HEp-2 cells

O=C(Nc1ccc(C(=O)N2CCc3cc(-c4nc5c(F)cccc5[nH]4)sc3-c3ccccc32)cc1)c1cccnc1N1CC2(CCOCC2)C1
> 14.6 µM
COc1ccc(C(=O)Nc2ccc(C(=O)N3CCc4cc(-c5nc6ccccc6[nH]5)sc4-c4ccccc43)cc2)c(N2CC3(CCOCC3)C2)n1
> 14.3 µM
CC(C)c1cnc(N2CC3(CCOCC3)C2)c(C(=O)Nc2ccc(C(=O)N3CCc4cc(-c5nc6ccccc6[nH]5)sc4-c4ccccc43)cc2)c1
> 14.1 µM
CCc1cnc(N2CC3(CCOCC3)C2)c(C(=O)Nc2ccc(C(=O)N3CCc4cc(-c5nc6ccccc6[nH]5)sc4-c4ccccc43)cc2)c1
> 14.3 µM
N#Cc1ccc2[nH]c(-c3cc4c(s3)-c3ccccc3N(C(=O)c3ccc(NC(=O)c5cccnc5N5CC6(CCOCC6)C5)cc3)CC4)nc2c1
> 14.4 µM

*Q* Please give the measured CC50 for this compound: "O=C(Nc1ccc(C(=O)N2CCc3cc(-c4nc5cc(Cl)ccc5[nH]4)sc3-c3ccccc32)cc1)c1cccnc1N1CC2(CCOCC2)C1"
*A* > 14.2 µM

*Q* Please give the measured CC50 for this compound: "O=C(Nc1ccc(C(=O)N2CCc3cc(-c4nc5cc(C(F)(F)F)ccc5[nH]4)sc3-c3ccccc32)cc1)c1cccnc1N1CC2(CCOCC2)C1"
*A* > 13.6 µM

*Q* Please give the measured CC50 for this compound: "O=C(Nc1ccc(C(=O)N2CCc3cc(-c4cc5ccccc5[nH]4)sc3-c3ccccc32)cc1)c1cccnc1N1CC2(CCOCC2)C1"
*A* > 15 µM

*Q* Please give the measured CC50 for this compound: "Cc1cnc(N2CC3(CCOCC3)C2)c(C(=O)Nc2ccc(C(=O)N3CCc4cc(-c5cn6ccccc6n5)sc4-c4ccccc43)cc2)c1"
*A* > 14.6 µM

*Q* Please give the measured CC50 for this compound: "N#Cc1cccc2[nH]c(-c3cc4c(s3)-c3ccccc3N(C(=O)c3ccc(NC(=O)c5cccnc5N5CC6(CCOCC6)C5)cc3)CC4)nc12"
*A* > 14.4 µM

Attribution: ChEMBL document CHEMBL4038291
